# System: HCC1143
# assay.notes: normalised response (% of control), CellTiter-Glo; higher = more viable cells (100 = DMSO, 0 = benzethonium chloride kill control)
# cond: incubation time: 72 h
Exercise: for every item that follows, state its recorded normalised response.
// note: answer is a bare numeric in %

[Q] Reported normalised response for CC(O)(CS(=O)(=O)c1ccc(F)cc1)C(=O)Nc1ccc(C#N)c(C(F)(F)F)c1 (stereo unspecified) [Bicalutamide] (10000 nM) : what is it?
[A] 104

[Q] Reported normalised response for CCN(CC)CCCC(C)Nc1ccnc2cc(Cl)ccc12 (stereo unspecified) [Chloroquine] (100000 nM) : what is it?
[A] 22.8

[Q] Reported normalised response for CC(C)C[C@H](NC(=O)[C@@H](COC(C)(C)C)NC(=O)[C@H](Cc1ccc(O)cc1)NC(=O)[C@H](CO)NC(=O)[C@H](Cc1c[nH]c2ccccc12)NC(=O)[C@H](Cc1cnc[nH]1)NC(=O)[C@@H]1CCC(=O)N1)C(=O)N[C@@H](CCCNC(=N)N)C(=O)N1CCC[C@H]1C(=O)NNC(N)=O [Goserelin] (10000 nM) : what is it?
[A] 101

[Q] Reported normalised response for CC(C)(C)NC(=O)[C@H]1CC[C@H]2[C@@H]3CC[C@H]4NC(=O)C=C[C@]4(C)[C@H]3CC[C@]12C [Finasteride] (10000 nM) : what is it?
[A] 96.6

[Q] Reported normalised response for CO[C@@H]1[C@H](N(C)C(=O)c2ccccc2)C[C@H]2O[C@]1(C)n1c3ccccc3c3c4c(c5c6ccccc6n2c5c31)C(=O)NC4 [Midostaurin] (10000 nM) : what is it?
[A] 45.9

[Q] Reported normalised response for CCNC(=O)c1noc(-c2cc(C(C)C)c(O)cc2O)c1-c1ccc(CN2CCOCC2)cc1 [NVP-AUY922] (1000 nM) : what is it?
[A] 38
